All figures here come from ChEMBL document CHEMBL4513216.

- Test description: Toxicity liver stage against HepG2, at 10uM
- Format: cell-based
- Design: test concentration 10 uM, cell line HepG2-A16-CD81EGFP
- Measurement conditions: human, HepG2-A16-CD81EGFP cells; read-out: INHIBITION
Metric: cytotoxicity at 10 µM (%)

molecule=COCCN(Cc1ccoc1)C(=O)c1ccc(Cl)s1 numeric_value=12.3
molecule=c1ccc(CN2CCOC[C@H]2c2nc(-c3ccncc3)c[nH]2)nc1 numeric_value=-0.501
molecule="NC(=O)NCC1CCCCN1Cc1nc(-c2ccco2)no1 (configuration not stated)" numeric_value=-6.06
molecule=CCOc1cc2c(cc1C(=O)O)CCC2 numeric_value=-18.6
molecule="Cc1cccc(C(C(=O)NCc2nc(-c3cccnc3)no2)N(C)C)c1 (configuration not stated)" numeric_value=6.45
molecule=Cc1cccc(CN2CCN3C[C@H](Oc4cncnc4)C[C@H]3C2)n1 numeric_value=-91.9
molecule=COCc1nc(N(C)C)ncc1C(=O)NC(C)C numeric_value=12.8
molecule=Cn1ccnc1Sc1ccc(N)cn1 numeric_value=3.08
molecule=Cc1nc(C)c(C(=O)NCCn2nc3ccccn3c2=O)s1 numeric_value=-2.51
molecule="COc1cccc(CC(C)NC(=O)NCCNC(C)=O)c1 (configuration not stated)" numeric_value=7.89
molecule="Cc1nc(C)n(CC2CCCN(Cc3ccc4c(c3)OCCO4)C2)n1 (configuration not stated)" numeric_value=-18.9
molecule=CC(=O)N1CCCN(C(=O)NCCOc2ccc3c(c2)OCO3)CC1 numeric_value=-14.9

* * *

Measured cytotoxicity at 10 µM by item
- Test description: Toxicity liver stage against HepG2, at 10uM
- Format: cell-based
- Parameters: test concentration 10 uM, cell line HepG2-A16-CD81EGFP
- Measurement conditions: human, HepG2-A16-CD81EGFP cells; read-out: INHIBITION
Metric: cytotoxicity at 10 µM (%)

molecule="Cc1cc(CC(=O)NCC(O)COc2ccc(F)c(F)c2)n[nH]1 (stereo not given)" metric="cytotoxicity at 10 µM" uom=% numeric_value=-7.66
molecule=COCCN(Cc1nccs1)C(=O)c1cc(-c2ccc(C)s2)n[nH]1 metric="cytotoxicity at 10 µM" uom=% numeric_value=-8.84
molecule=Cc1ccc(CN2CCc3ncnc(C4CC4)c3CC2)s1 metric="cytotoxicity at 10 µM" uom=% numeric_value=4.63
molecule="CC(=O)N(Cc1noc(C2CC2)n1)C1CCN(Cc2ccccn2)C1 (stereo not given)" metric="cytotoxicity at 10 µM" uom=% numeric_value=-5.72
molecule="Cc1cnn(CC2CCCN2CC(=O)NCc2ccccn2)c1 (stereo not given)" metric="cytotoxicity at 10 µM" uom=% numeric_value=-5
molecule=O=S(=O)(C1CC1)N1CCn2cc(CNc3ccccn3)nc2C1 metric="cytotoxicity at 10 µM" uom=% numeric_value=8.04
molecule=CCc1ccccc1OCCN1CCC(NS(C)(=O)=O)CC1 metric="cytotoxicity at 10 µM" uom=% numeric_value=-20.4
molecule=Cc1ccc(S(=O)(=O)c2ncccc2CN2CCCC2)cc1 metric="cytotoxicity at 10 µM" uom=% numeric_value=-49.4
molecule="Cc1ccc(CNC(=O)NC2CCCN(c3ncccn3)C2)cn1 (stereo not given)" metric="cytotoxicity at 10 µM" uom=% numeric_value=3.08
molecule="O=C(c1ccccn1)N1CCOC2(COCCN(Cc3cc[nH]n3)C2)C1 (stereo not given)" metric="cytotoxicity at 10 µM" uom=% numeric_value=0.0227
molecule=OCCn1nccc1C1CCN(CCCOc2ccc(F)cc2)CC1 metric="cytotoxicity at 10 µM" uom=% numeric_value=-4.3
molecule="COCc1c(C(=O)N2CCCC(N(C)Cc3ccccc3)C2)noc1C (stereo not given)" metric="cytotoxicity at 10 µM" uom=% numeric_value=-16.8
molecule="COc1cc(C(=O)N2CCCC2c2noc(C(C)C)n2)on1 (stereo not given)" metric="cytotoxicity at 10 µM" uom=% numeric_value=-12.4
molecule="Cn1ncnc1CNC1CCc2cc(Cl)ccc21 (stereo not given)" metric="cytotoxicity at 10 µM" uom=% numeric_value=9.57
molecule=CCCc1cncnc1N1CCC2(CCC(=O)N(CCCO)C2)CC1 metric="cytotoxicity at 10 µM" uom=% numeric_value=2.8
molecule=Nc1nnc(CCNc2ncnc3c2CCN(C(=O)C2CC2)C3)s1 metric="cytotoxicity at 10 µM" uom=% numeric_value=-7
molecule=O=c1[nH]cnc2[nH]c(N3CCNCC3)nc12 metric="cytotoxicity at 10 µM" uom=% numeric_value=-4.31
molecule="CCC(C)NC(=O)CS(=O)(=O)Cc1cc(Cl)ccc1OC (stereo not given)" metric="cytotoxicity at 10 µM" uom=% numeric_value=10.8
molecule=CCN(CC)C(=O)c1nnn(-c2ccc(C)cc2)c1C1CC1 metric="cytotoxicity at 10 µM" uom=% numeric_value=-8.35
molecule=c1ccc(CCc2noc(CN3CCC(N4CCSCC4)CC3)n2)cc1 metric="cytotoxicity at 10 µM" uom=% numeric_value=-8.01
molecule="CC(C)c1nc(C2CCCN2Cc2ccno2)no1 (stereo not given)" metric="cytotoxicity at 10 µM" uom=% numeric_value=-6.85
molecule=Cc1nc(C2CCN(C(=O)c3ccc(Cl)s3)CC2)cc(=O)[nH]1 metric="cytotoxicity at 10 µM" uom=% numeric_value=-0.243
molecule=CCSc1cncc(N2CCC(C(=O)Nc3ccccn3)CC2)n1 metric="cytotoxicity at 10 µM" uom=% numeric_value=26.3
molecule="CCC(=O)NC(Cc1cc(N(C)C)nc(C2CC2)n1)c1ccccc1 (stereo not given)" metric="cytotoxicity at 10 µM" uom=% numeric_value=0.301
molecule=CN(Cc1nccn1CC(F)(F)F)C(=O)c1cccc(C#N)c1 metric="cytotoxicity at 10 µM" uom=% numeric_value=5.4

* * *

- Test description: Toxicity liver stage against HepG2, at 10uM
- Assay type: cell-based
- Parameters: test concentration 10 uM, cell line HepG2-A16-CD81EGFP
- Measurement conditions: human, HepG2-A16-CD81EGFP cells; read-out: INHIBITION
Metric: cytotoxicity at 10 µM (%)

molecule="Cc1cc(C)nc(C2CCN(C3CCCCC3)C2)n1 (stereo unspecified)" numeric_value=7.33
molecule=CNC(=O)[C@@H](c1ccccc1OC)N1CCC[C@H]1C(=O)N1CCC1 numeric_value=1.44
molecule="CC/C(C)=C/CCN1CCN(C)C2(CCNC(=O)CC2)C1 (stereo unspecified)" numeric_value=-48.2
molecule=c1ccc(Cn2cc(CNc3ncnc4c3CCNCC4)cn2)cc1 numeric_value=1.99
molecule=Cc1cc2c(=O)n3c(nc2s1)CCN(C(=O)c1ccnn1C)CC3 numeric_value=-4.08
molecule=COCCc1noc(CN(C)c2nc(C)cc(C)n2)n1 numeric_value=0.801

* * *

- Test description: Toxicity liver stage against HepG2, at 10uM
- Assay type: cell-based
- Set-up: test concentration 10 uM, cell line HepG2-A16-CD81EGFP
- Measurement conditions: human, HepG2-A16-CD81EGFP cells; read-out: INHIBITION
Metric: cytotoxicity at 10 µM (%)

compound=CN(Cc1cc(-c2ccccc2)no1)C(=O)CNS(C)(=O)=O numeric_value=0.0288
compound=COc1ccc2c(c1)CCCN2Cc1nc2c(cnn2C)c(=O)[nH]1 numeric_value=-3.3
compound="CCC(NC(=O)CCCNC(=O)OC)c1cc(F)ccc1F (centres undefined)" numeric_value=-2.34
compound=Cc1ccsc1C(=O)N1CC2CC1(C(=O)NCC1CC1)C2 numeric_value=-4.78
compound=Cn1cc(CN2C[C@@H]3COC[C@]3(COCC3CC3)C2)cn1 numeric_value=-112
compound=COc1ccc(F)c(-c2ncccc2NC(=O)C(C)C)c1 numeric_value=5.69
compound="NC(=O)C1(CCCc2ccccn2)CCCN(Cc2ccncc2)C1 (centres undefined)" numeric_value=-4.8
compound="CNC(=O)C1(c2cnccn2)CCCN1C(=O)c1ccccc1F (centres undefined)" numeric_value=-17.1
compound=CCc1nnc2n1CCN(C(=O)c1cc3cc(F)ccc3[nH]1)C2 numeric_value=-9.52
compound=Cc1ccc(C(=O)N2CCN(c3ccnc4ccsc34)CC2)o1 numeric_value=38.7
compound=CN(Cc1ccccc1)S(=O)(=O)N1C[C@H](C2CC2)[C@@H](N)C1 numeric_value=-159
compound=Cc1cc(C(=O)N2CCn3cc(CN4CCN(C)CC4)nc3C2)no1 numeric_value=-74.7
compound="CCNc1nnc(SC(C(=O)NCc2cccnc2)C(C)C)s1 (centres undefined)" numeric_value=-13.3
compound="COCc1cc(N2CCOC(c3ccc(Cl)cc3)C2)ncn1 (centres undefined)" numeric_value=1.92
compound="COCc1ccccc1C(=O)NCCCN1CCCC1C(=O)N(C)C (centres undefined)" numeric_value=-14.5
compound="CC(NCCn1cccn1)c1cc(F)ccc1F (centres undefined)" numeric_value=6.33
compound="CC(NC(=O)COc1ccc(F)cc1)c1nnc2n1CCCCC2 (centres undefined)" numeric_value=-8.99
compound=CN(C)C(=O)c1n[nH]c2c1CN(Cc1ccccn1)CC2 numeric_value=3.17
compound="CCN1CCN(C(=O)C2CC(=O)N(c3cnn(C(C)C)c3)C2)CC1 (centres undefined)" numeric_value=5.61
compound=COc1cc(CN[C@@H]2COC[C@H]2Cc2cc(C)no2)cc(OC)c1 numeric_value=0.975
compound=CSCCC(=O)N1CCC(Oc2cc(C)ccc2F)(C(=O)O)CC1 numeric_value=-6.02
compound=Cc1ccc(C(=O)NCCCNc2ccc(C(F)(F)F)cn2)cc1 numeric_value=-2.34
compound=Cc1cc(C)cc(CN2CCN(C(=O)CCc3n[nH]c(C)n3)CC2=O)c1 numeric_value=0.108
compound=O=C(O)[C@H]1OCC(=O)N(Cc2cccc(Cl)c2)[C@@H]1c1ccccc1 numeric_value=7.35
